The entries below pair compounds with pIC50 values for BTK (Homo sapiens), as found in several publications.
pIC50: −log10 of the molar value.

# pIC50 of C=CC(=O)N1CC(n2nc(-c3cnc(OC)c(F)c3)c3c(N)ncnc32)Cc2cc(C)ccc21 (stereo not shown) = 6.06

// pIC50 value for CC(C)CCSc1ccccc1NCC(=O)N[C@@H]1CCCN(c2ncnc3[nH]ccc23)C1 : > 7.00

Memo: C=CC(=O)N1CCc2c(cccc2-c2c(F)cc(C(N)=O)c3[nH]c4c(c23)CC2(CCCO2)CC4)C1 (stereo not shown) , reported pIC50: 7.00 to 8.00

// sample CN(C)C/C=C/C(=O)N1CCCC(n2cc(-c3ccc(Oc4cccc(Cl)c4)cc3)c3c(N)n[nH]c(=O)c32)C1 (stereo not shown) , its pIC50 was ≥ 8.00

The recorded pIC50 for entry CC(NC(=O)c1cn(C(C)(C)C)nn1)C1CCN(c2nc(-c3cnn(C)c3)cn3nccc23)CC1 (stereo not shown) equals 6.00 to 8.00

get_value(item= C=CC(=O)N1CC2CC1C(n1nc(-c3ccc(C(=O)Nc4cccc(C(C)C)c4)cc3)c3c(N)ncnc31)C2 (stereo not shown) , readout=pIC50) returns 7.96

For this compound ( Nc1ncnc(N[C@H]2CCCN(C(=O)CNc3cc(Cl)cc(Cl)c3)C2)c1F ), measured pIC50 is 6.00 to 7.00

Documented pIC50 of Cc1cc(-c2ncnc3[nH]ccc23)ccc1CNC(=O)c1ccc(C(C)(C)C)cc1 : > 8.00

pIC50 recorded for this compound, C[C@H]1CNC(=O)c2cnn3c(N)c(-c4ccc5[nH]ccc5c4)c(nc23)NCc2cc(F)cnc2O1 , is < 6.00

Entry CC(C)OC1CN(C(=O)NC2CCCCc3cc(-c4ncnc5[nH]c(-c6cnn(C)c6)cc45)ccc32)C1 (stereo not shown) , pIC50 reported as > 8.00

Entry under test: CC(C)OC1CN(C(=O)NC2CCN(CCO)Cc3cc(-c4ccnc(Nc5cnn(C)c5)n4)ccc32)C1 (stereo not shown) . Its pIC50 was > 8.00

Measured pIC50, CN(C)c1cccc(NCC(=O)NC2CCCN(c3ncnc4[nH]ccc34)C2)c1 (stereo not shown) : 5.00 to 6.00

Form: compound = C=CC(=O)Nc1cccc(-c2cc(-c3ccccc3Cl)cc3cncnc23)c1 ; pIC50 = > 7.00

For this compound ( C=CC(=O)Nc1cccc(-c2cc(CN3CCOCC3)cc(NC(=O)C3CC3)n2)c1 ), measured pIC50 is < 6.40

// field: pIC50; key: CC(C)(C)c1ncc(C(=O)NC2CCCc3cc(-c4ncnc5cc[nH]c45)ccc32)s1 (stereo not shown) ; value = 7.00 to 8.00

Data point: Cc1cc(-c2ccnc(N)n2)ccc1CNC(=O)c1cnc(C(C)C)s1 ; pIC50 = 7.00 to 8.00

###

# pIC50 against BTK (Homo sapiens), merged from multiple literature sources
# Sequence (Q06187 whole entry): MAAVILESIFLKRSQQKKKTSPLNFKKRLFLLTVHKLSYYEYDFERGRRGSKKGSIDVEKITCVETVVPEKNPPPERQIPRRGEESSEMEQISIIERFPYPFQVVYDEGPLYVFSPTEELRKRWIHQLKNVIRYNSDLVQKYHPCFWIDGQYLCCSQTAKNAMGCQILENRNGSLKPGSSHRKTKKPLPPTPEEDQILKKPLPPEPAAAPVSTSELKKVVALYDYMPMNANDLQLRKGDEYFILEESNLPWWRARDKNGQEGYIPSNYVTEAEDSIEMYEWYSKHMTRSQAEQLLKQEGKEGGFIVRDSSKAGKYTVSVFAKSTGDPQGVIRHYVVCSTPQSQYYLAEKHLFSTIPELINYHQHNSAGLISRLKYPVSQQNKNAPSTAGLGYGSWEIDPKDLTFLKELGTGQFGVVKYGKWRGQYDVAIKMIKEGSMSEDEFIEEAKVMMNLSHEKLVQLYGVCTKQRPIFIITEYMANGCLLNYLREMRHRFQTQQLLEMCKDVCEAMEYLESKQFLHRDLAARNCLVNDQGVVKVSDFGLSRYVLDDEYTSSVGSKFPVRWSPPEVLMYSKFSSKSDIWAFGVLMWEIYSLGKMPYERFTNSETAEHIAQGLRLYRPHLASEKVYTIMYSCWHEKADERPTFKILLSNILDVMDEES
The read-out pIC50 is expressed as -log10 of concentration in moles per litre.

Entry C=CC(=O)N1CCC[C@@H](n2nc(-c3ccc(C(=O)Nc4ccccn4)cc3Cl)c3c(N)ncc(I)c32)C1 ; pIC50 = 9.40

Lab book: pIC50 of NC(=O)c1nnc2c(-c3ccc4c(c3)CC(=O)N4)cccc2c1N noted as 5.90

C=CC(=O)N1CC[C@]2(C1)C[C@H](n1c(NC(=O)c3ccc(-c4cnco4)s3)nc3cc(CN4CCCC4)ccc31)C2 has a reported pIC50 of 8.94

According to the records, this compound Nc1ncnc2c1c(-c1cc(O)c(Cl)c(Cl)c1)cn2C1Cc2ccccc2C1 displays pIC50 of 8.06

Given item C=CC(=O)N1CC[C@]2(C1)C[C@H](n1c(NC(=O)c3ccc(C(F)F)s3)nc3ccccc31)C2 , the value recorded as its pIC50 is 8.36

Form: compound = C=CC(=O)N1CCC[C@@H](n2nc(-c3ccc(C(=O)Nc4ccccn4)cc3Cl)c3c(N)ncc(CC)c32)C1 ; pIC50 = 9.05

So, Nc1ncnc2c1c(-c1ccc(Oc3ccccc3)cc1)nn2C1CC2CC1CN2C(=O)/C=C/CBr (stereo not drawn) ? Its pIC50 was 8.17
